Molecular target: T1, carcinoembryonic antigen (UniProt P06731 35-685)
T1 construct: carcinoembryonic antigen (CEA), serum tumor marker; also called CEA; CAE
T1 sequence (looked up): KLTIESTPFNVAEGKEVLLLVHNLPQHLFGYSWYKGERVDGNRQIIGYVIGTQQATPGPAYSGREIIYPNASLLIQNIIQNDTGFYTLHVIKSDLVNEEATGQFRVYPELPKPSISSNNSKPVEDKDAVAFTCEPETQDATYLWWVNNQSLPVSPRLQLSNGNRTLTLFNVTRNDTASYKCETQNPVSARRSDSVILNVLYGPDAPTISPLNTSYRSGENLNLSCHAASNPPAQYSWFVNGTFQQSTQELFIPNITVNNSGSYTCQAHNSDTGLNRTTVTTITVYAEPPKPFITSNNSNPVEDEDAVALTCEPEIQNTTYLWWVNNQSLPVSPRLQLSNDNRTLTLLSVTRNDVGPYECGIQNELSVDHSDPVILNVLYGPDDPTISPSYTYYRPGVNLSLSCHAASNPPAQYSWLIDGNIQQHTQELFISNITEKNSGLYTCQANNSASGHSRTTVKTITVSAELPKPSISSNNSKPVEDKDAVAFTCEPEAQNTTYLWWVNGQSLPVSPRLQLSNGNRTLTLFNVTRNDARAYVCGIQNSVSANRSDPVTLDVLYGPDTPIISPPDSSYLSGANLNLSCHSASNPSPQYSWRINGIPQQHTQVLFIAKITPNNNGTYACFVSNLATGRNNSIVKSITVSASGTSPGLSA
Assay: BLI; Octet RH96; CEA, SCCAg or CYFRA 21-1 immobilised on AR2G biosensors by amine coupling; peptides in a range of concentrations; room temperature; association 90 s, dissociation 180 s; KD as kd/ka
Conditions: both partners purified
Give pKd for every item shown.
Lab note: report pKd as minus log10 of the concentration in molar units, number only.

*Q* State its pKd: WSPSALLPSSVT (dodecapeptide C3 from phage display, synthesized; source: synthetic peptide (Fmoc solid phase, Synpeptide Co., HPLC purified)) [synthetic peptide C3]
*A* 6.34

*Q* State its pKd: HHRLTRSMQLMM (dodecapeptide C4 from phage display, synthesized; source: synthetic peptide (Fmoc solid phase, Synpeptide Co., HPLC purified)) [synthetic peptide C4]
*A* 7.80

*Q* State its pKd: YGVSALSSYVSC (dodecapeptide C2 from phage display, synthesized; source: synthetic peptide (Fmoc solid phase, Synpeptide Co., HPLC purified)) [synthetic peptide C2]
*A* 6.06
